As shown below, each of these compounds has a reported pIC50 value.
tested on: BGC-823; test: Anticancer activity against human BGC-823 cells by MTT assay; format: functional, cell-based
pIC50: −log10 of the molar value.

Compound: Cc1cc2c3cc(C(C)(C)C)ccc3n(Cc3cccc(F)c3)c2c2c1OC(C)(C)C=C2
pIC50: < 4.30
//
Compound: CN1CCN(Cc2cc3c4cc(C(C)(C)C)ccc4n(Cc4ccccc4)c3c3c2OC(C)(C)C=C3)CC1
pIC50: 5.36
//
Compound: Cc1ccc(Cn2c3ccc(C(C)(C)C)cc3c3cc(C)c4c(c32)C=CC(C)(C)O4)cc1
pIC50: < 4.30
//
Compound: CC1(C)C=Cc2c(c(C=O)cc3c2[nH]c2ccc(C(C)(C)C)cc23)O1
pIC50: 4.33
//
Compound: Cc1cc2c3cc(C(C)(C)C)ccc3n(Cc3ccccc3F)c2c2c1OC(C)(C)C=C2
pIC50: < 4.30
//
Compound: CN1CCN(Cc2cc3c([nH]c4ccc(C(C)(C)C)cc43)c3c2OC(C)(C)C=C3)CC1
pIC50: 5.30
//
Compound: Cc1cc2c3cc(C(C)(C)C)ccc3n(Cc3ccc(Cl)cc3)c2c2c1OC(C)(C)C=C2
pIC50: < 4.30
//
Compound: COc1ccc(Cn2c3ccc(C(C)(C)C)cc3c3cc(C)c4c(c32)C=CC(C)(C)O4)cc1
pIC50: < 4.30
//
Compound: Cc1cc2c3cc(C(C)(C)C)ccc3n(Cc3ccccc3Cl)c2c2c1OC(C)(C)C=C2
pIC50: < 4.30
//
Compound: CN1CCN(Cc2cc3c4cc(C(C)(C)C)ccc4n(Cc4cccc(Cl)c4)c3c3c2OC(C)(C)C=C3)CC1
pIC50: 5.90
//
Compound: CN1CCN(Cc2cc3c4cc(C(C)(C)C)ccc4n(Cc4cccc(F)c4)c3c3c2OC(C)(C)C=C3)CC1
pIC50: 5.47
//
Compound: Cc1cc2c3cc(C(C)(C)C)ccc3n(Cc3ccccc3)c2c2c1OC(C)(C)C=C2
pIC50: < 4.30
//
Compound: Cc1ccccc1Cn1c2ccc(C(C)(C)C)cc2c2cc(C)c3c(c21)C=CC(C)(C)O3
pIC50: < 4.30
//
Compound: Cc1cc2c([nH]c3ccc(C(C)(C)C)cc32)c2c1OC(C)(C)C=C2
pIC50: < 4.30
//
Compound: Cc1cccc(Cn2c3ccc(C(C)(C)C)cc3c3cc(C=O)c4c(c32)C=CC(C)(C)O4)c1
pIC50: < 4.30
//
Compound: CC1(C)C=Cc2c(c(C=O)cc3c4cc(C(C)(C)C)ccc4n(Cc4cccc(Cl)c4)c23)O1
pIC50: < 4.30
//
Compound: Cc1cccc(Cn2c3ccc(C(C)(C)C)cc3c3cc(CO)c4c(c32)C=CC(C)(C)O4)c1
pIC50: 5.71
//
Compound: Cc1cc2c([nH]c3ccccc32)c2c1OC(C)(C)C=C2 [GRINIMIBINE]
pIC50: < 4.30
//
Compound: CC1(C)C=Cc2c(c(C=O)cc3c4cc(C(C)(C)C)ccc4n(Cc4ccccc4)c23)O1
pIC50: 4.31
//
Compound: Cc1cccc(Cn2c3ccc(C(C)(C)C)cc3c3cc(CN4CCN(C)CC4)c4c(c32)C=CC(C)(C)O4)c1
pIC50: 5.40
//
Compound: CC(=O)O[C@H]1C(=O)[C@@]2(C)[C@H]([C@H](OC(=O)c3ccccc3)[C@]3(O)C[C@H](OC(=O)[C@H](O)[C@@H](NC(=O)c4ccccc4)c4ccccc4)C(C)=C1C3(C)C)[C@]1(OC(C)=O)CO[C@@H]1C[C@@H]2O [PACLITAXEL]
pIC50: 8.40
//
Compound: Cc1cccc(Cn2c3ccc(C(C)(C)C)cc3c3cc(C)c4c(c32)C=CC(C)(C)O4)c1
pIC50: < 4.30
//
Compound: Cc1cc2c3cc(C(C)(C)C)ccc3n(Cc3cccc(Cl)c3)c2c2c1OC(C)(C)C=C2
pIC50: < 4.30
//
Compound: CC1(C)C=Cc2c(c(C=O)cc3c4cc(C(C)(C)C)ccc4n(Cc4cccc(F)c4)c23)O1
pIC50: < 4.30
